Ref: patent US20170081357A1

Listing of entries alongside the reported inhibition at 1 µM.
Molecular target: recombinant human 17β-HSD1 (Homo sapiens, UniProt P14061)
Construct: made in house; host or cells: Sd9 (Sf9) insect cells, baculovirus (Bac to Bac Expression System); microsomal fraction
Assay: Inhibition of recombinant human 17β-HSD1 (conversion of 3H-estrone to estradiol, HPLC)
Format: biochemical
Details: inhibitor 1 μM; 30 nM estrone, 1 mM NADPH, 30 min at RT; read-out: 17β-HDS1 Inhibition % at 1 μM

>  <compound>
Cc1cnc(NC(=O)CC[C@@H]2c3c[nH]nc3[C@@]3(C)CCC4c5cc(C(C)(C)C)c(O)cc5CCC4C23)s1 (stereo partly shown)

>  <study.system>
recombinant human 17β-HSD1 (Homo sapiens, UniProt P14061)

>  <inhibition at 1 µM>
76%

$$$$
>  <compound>
Cc1cnc(NC(=O)CC[C@@H]2C(=C\O)/C(=N\O)[C@@]3(C)CCC4c5cc(Br)c(O)c(Br)c5CCC4C23)s1 (stereo partly shown)

>  <study.system>
recombinant human 17β-HSD1 (Homo sapiens, UniProt P14061)

>  <inhibition at 1 µM>
94%

$$$$
>  <compound>
CO/N=C1\C[C@@H](CCC(=O)Nc2ncc(C)s2)C2C3CCc4cc(O)c(F)cc4C3CC[C@]12C (stereo partly shown)

>  <study.system>
recombinant human 17β-HSD1 (Homo sapiens, UniProt P14061)

>  <inhibition at 1 µM>
94%

$$$$

// moving on: another record for inhibition at 1 µM
INPUT: Entry COCC/N=C1\C[C@@H](CCC(=O)Nc2ncc(C)s2)C2C3CCc4cc(O)c(C(C)(C)C)cc4C3CC[C@]12C (stereo partly shown) : reported inhibition at 1 µM = ?
OUTPUT: 94%

* * *

Test: Metabolic stability assay, human liver microsome and homogenate incubations
Type: in vitro ADME
Conditions: human liver homogenate or microsomes, LC/PDA/TOF-MS
// assign satisfied if In vitro metabolic stability, % remaining after 60 min falls strictly below 90%, else not satisfied (ties count as not satisfied)

The examples below pair each entry with its known result.
>  <molecule>
Cc1cnc(NC(=O)CC[C@@H]2C/C(=N\O)[C@@]3(C)CCC4c5cc([N+](=O)[O-])c(O)cc5CCC4C23)s1 (stereo partly shown) [Compound 60]

>  <class.label>
satisfied

$$$$
>  <molecule>
Cc1cnc(NC(=O)CC[C@@H]2C/C(=N\O)[C@@]3(C)CCC4c5ccc(O)c(Br)c5CCC4C23)s1 (stereo partly shown) [Compound 63]

>  <class.label>
satisfied

$$$$
>  <molecule>
CO/N=C1\C[C@@H](CCC(=O)Nc2ncc(C)s2)C2C3CCc4cc(O)c(Br)cc4C3CC[C@]12C (stereo partly shown) [Compound 85]

>  <class.label>
satisfied

$$$$
>  <molecule>
Cc1cnc(NC(=O)CC[C@@H]2C(=C\O)/C(=N\O)[C@@]3(C)CCC4c5cc(Br)c(O)c(Br)c5CCC4C23)s1 (stereo partly shown) [Compound 70]

>  <class.label>
not satisfied

$$$$
>  <molecule>
CO/N=C1\C[C@@H](CCC(=O)Nc2ncc(C)s2)C2C3CCc4c(ccc(O)c4F)C3CC[C@]12C (stereo partly shown) [Compound 92]

>  <class.label>
satisfied

$$$$
>  <molecule>
CO/N=C1\C[C@@H](CCC(=O)Nc2ncc(C)s2)C2C3CCc4cc(O)ccc4C3CC[C@]12C (stereo partly shown) [Compound 73]

>  <class.label>
satisfied

$$$$
>  <molecule>
Cc1cnc(NC(=O)CC[C@@H]2C/C(=N\O)[C@@]3(C)CCC4c5cc(C(C)(C)C)c(O)cc5CCC4C23)s1 (stereo partly shown) [Compound 58]

>  <class.label>
not satisfied

$$$$
>  <molecule>
Cc1cnc(NC(=O)CC[C@@H]2c3c[nH]nc3[C@@]3(C)CCC4c5cc([N+](=O)[O-])c(O)cc5CCC4C23)s1 (stereo partly shown) [Compound 55]

>  <class.label>
satisfied

$$$$

INPUT: Strictly below 90% in In vitro metabolic stability, % remaining after 60 min? Cc1cnc(NC(=O)CC[C@@H]2C/C(=N\O)[C@@]3(C)CCC4c5cc(Br)c(O)c(Br)c5CCC4C23)s1 (stereo partly shown) [Compound 64]
OUTPUT: not satisfied

INPUT: Consider next the molecule Cc1cnc(NC(=O)CC[C@@H]2c3c[nH]nc3[C@@]3(C)CCC4c5cc(C(C)(C)C)c(O)cc5CCC4C23)s1 (stereo partly shown) [Compound 53] in the same way.
OUTPUT: not satisfied

INPUT: Could you do the same for Cc1cnc(NC(=O)CC[C@@H]2c3c[nH]nc3[C@@]3(C)CCC4c5ccc(O)cc5CCC4C23)s1 (stereo partly shown) [Compound 51] , please?
OUTPUT: satisfied

INPUT: Request: Cc1cnc(NC(=O)CC[C@@H]2C/C(=N\O)[C@@]3(C)CCC4c5ccccc5CCC4C23)s1 (stereo partly shown) [Compound 59]
OUTPUT: not satisfied

INPUT: Next record, please: CO/N=C1\C[C@@H](CCC(=O)Nc2ncc(C)s2)C2C3CCc4cc(O)c(Cl)cc4C3CC[C@]12C (stereo partly shown) [Compound 88]
OUTPUT: not satisfied

INPUT: Thanks! And CO/N=C1\C[C@@H](CCC(=O)Nc2ncc(C)s2)C2C3CCc4cc(O)c(C(C)(C)C)cc4C3CC[C@]12C (stereo partly shown) [Compound 76] ?
OUTPUT: not satisfied

* * *

Molecular target: recombinant human 17β-HSD1 (Homo sapiens, UniProt P14061)
Construct: made in house; host or cells: Sd9 (Sf9) insect cells, baculovirus (Bac to Bac Expression System); microsomal fraction
Sequence (P14061 1-328): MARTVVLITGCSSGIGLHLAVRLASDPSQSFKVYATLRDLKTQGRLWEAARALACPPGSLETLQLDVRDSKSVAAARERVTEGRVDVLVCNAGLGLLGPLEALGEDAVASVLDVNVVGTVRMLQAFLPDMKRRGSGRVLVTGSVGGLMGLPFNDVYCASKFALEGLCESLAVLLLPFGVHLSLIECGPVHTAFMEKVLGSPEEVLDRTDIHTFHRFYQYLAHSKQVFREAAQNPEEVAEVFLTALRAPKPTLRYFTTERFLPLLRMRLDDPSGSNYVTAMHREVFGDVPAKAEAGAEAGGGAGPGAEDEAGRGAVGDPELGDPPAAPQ
Assay: Inhibition of recombinant human 17β-HSD1 (conversion of 3H-estrone to estradiol, HPLC)
Format: biochemical
Conditions: inhibitor 1 μM; 30 nM estrone, 1 mM NADPH, 30 min at RT; read-out: 17β-HDS1 Inhibition % at 1 μM
observed.property: inhibition at 1 µM (%)
Quick note: give the figure in %, leave out the unit.

Worked examples follow.
>  <compound>
CO/N=C1\C[C@@H](CCC(=O)Nc2ncc(C)s2)C2C3CCc4cc(OC)ccc4C3CC[C@]12C (stereo partly shown) [Compound 74]

>  <study.system>
recombinant human 17β-HSD1 (Homo sapiens, UniProt P14061)

>  <inhibition at 1 µM / %>
59

$$$$
>  <compound>
COc1cc2c(cc1/C(C)=N/O)C1CC[C@]3(C)/C(=N/O)C[C@@H](CCC(=O)Nc4ncc(C)s4)C3C1CC2 (stereo partly shown) [Compound 72]

>  <study.system>
recombinant human 17β-HSD1 (Homo sapiens, UniProt P14061)

>  <inhibition at 1 µM / %>
77

$$$$
>  <compound>
Cc1cnc(NC(=O)CC[C@@H]2C(=C\O)/C(=N\O)[C@@]3(C)CCC4c5ccc(O)cc5CCC4C23)s1 (stereo partly shown) [Compound 69]

>  <study.system>
recombinant human 17β-HSD1 (Homo sapiens, UniProt P14061)

>  <inhibition at 1 µM / %>
98

$$$$

Now turn to the next compound.
INPUT: Recorded inhibition at 1 µM for COc1ccc2c(c1)CCC1C2CC[C@]2(C)c3n[nH]cc3[C@@H](CCC(=O)Nc3ncc(C)s3)C12 (stereo partly shown) [Compound 50] , please?
OUTPUT: 78

* * *

Attribute: inhibition at 1 µM
Target: recombinant human 17β-HSD2 (Homo sapiens)
Construct: made in house; host or cells: Sd9 (Sf9) insect cells, baculovirus (Bac to Bac Expression System); fractionated cell extract
Sequence (P37059 whole entry): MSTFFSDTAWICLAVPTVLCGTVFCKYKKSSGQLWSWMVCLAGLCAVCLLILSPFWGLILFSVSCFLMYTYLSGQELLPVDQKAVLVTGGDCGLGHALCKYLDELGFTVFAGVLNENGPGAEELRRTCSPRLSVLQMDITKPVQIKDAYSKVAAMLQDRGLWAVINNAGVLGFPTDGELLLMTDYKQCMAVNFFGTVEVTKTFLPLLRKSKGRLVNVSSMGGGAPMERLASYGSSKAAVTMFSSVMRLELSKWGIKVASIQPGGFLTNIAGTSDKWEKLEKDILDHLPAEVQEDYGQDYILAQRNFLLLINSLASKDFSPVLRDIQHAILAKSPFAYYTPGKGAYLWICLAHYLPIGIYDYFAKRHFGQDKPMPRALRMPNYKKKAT
Experiment: Inhibition of recombinant human 17β-HSD2 (conversion of 3H-estradiol to estrone, HPLC)
Assay type: biochemical
Details: inhibitor 1 μM; 50 nM estradiol, 1 mM NADH, 30 min at RT
Returns: string containing the number followed by the unit.

>  <compound>
Cc1cnc(NC(=O)CC[C@@H]2C/C(=N\OCC(=O)O)[C@@]3(C)CCC4c5cc(C(C)(C)C)c(O)cc5CCC4C23)s1 (stereo partly shown) [Compound 110]

>  <inhibition at 1 µM>
7%

$$$$
>  <compound>
CO/N=C1\C[C@@H](CCC(=O)Nc2ncc(C)s2)C2C3CCc4cc(OC)ccc4C3CC[C@]12C (stereo partly shown) [Compound 74]

>  <inhibition at 1 µM>
2%

$$$$
>  <compound>
COCC/N=C1\C[C@@H](CCC(=O)Nc2ncc(C)s2)C2C3CCc4cc(O)ccc4C3CC[C@]12C (stereo partly shown) [Compound 122]

>  <inhibition at 1 µM>
5%

$$$$

INPUT: Consider the compound shown here: C=CCO/N=C1\C[C@@H](CCC(=O)Nc2ncc(C)s2)C2C3CCc4cc(O)ccc4C3CC[C@]12C (stereo partly shown) [Compound 107] What is its recorded inhibition at 1 µM?
OUTPUT: 3%

INPUT: Try this compound next: Cc1cnc(NC(=O)CC[C@@H]2c3conc3[C@@]3(C)CCC4c5cc(Br)c(O)c(Br)c5CCC4C23)s1 (stereo partly shown) [Compound 119]
OUTPUT: 28%

INPUT: Try this compound too: CO/N=C1\C[C@@H](CCC(=O)Nc2ncc(C)s2)C2C3CCc4cc(OC(=O)CN(C)C)ccc4C3CC[C@]12C (stereo partly shown) [Compound 101]
OUTPUT: 3%

INPUT: Here is the next compound: CO/N=C1\C[C@@H](CCC(=O)Nc2ncc(C)s2)C2C3CCc4c(ccc(O)c4F)C3CC[C@]12C (stereo partly shown) [Compound 92]
OUTPUT: 7%

INPUT: Quick one: Cc1cnc(NC(=O)CC[C@@H]2C/C(=N\OCC(=O)O)[C@@]3(C)CCC4c5cc([N+](=O)[O-])c(O)cc5CCC4C23)s1 (stereo partly shown) [Compound 111]
OUTPUT: 0%

INPUT: Another compound to check: Cc1cnc(NC(=O)CC[C@@H]2C(=C\O)/C(=N\O)[C@@]3(C)CCC4c5cc(Br)c(O)c(Br)c5CCC4C23)s1 (stereo partly shown) [Compound 70]
OUTPUT: 8%

INPUT: What do you have for CO/N=C1\C[C@@H](CCC(=O)Nc2ncc(C)s2)C2C3CCc4cc(O)c(CN5CCOCC5)cc4C3CC[C@]12C (stereo partly shown) [Compound 98] ?
OUTPUT: 0%

INPUT: Cc1cnc(NC(=O)CC[C@@H]2c3c[nH]nc3[C@@]3(C)CCC4c5ccccc5CCC4C23)s1 (stereo partly shown) [Compound 52] , same question.
OUTPUT: 0%
